# Subject Of Test: phosphorylated BTK in Ramos cells (Homo sapiens (Human), UniProt Q06187)
# Sequence (Q06187 whole entry): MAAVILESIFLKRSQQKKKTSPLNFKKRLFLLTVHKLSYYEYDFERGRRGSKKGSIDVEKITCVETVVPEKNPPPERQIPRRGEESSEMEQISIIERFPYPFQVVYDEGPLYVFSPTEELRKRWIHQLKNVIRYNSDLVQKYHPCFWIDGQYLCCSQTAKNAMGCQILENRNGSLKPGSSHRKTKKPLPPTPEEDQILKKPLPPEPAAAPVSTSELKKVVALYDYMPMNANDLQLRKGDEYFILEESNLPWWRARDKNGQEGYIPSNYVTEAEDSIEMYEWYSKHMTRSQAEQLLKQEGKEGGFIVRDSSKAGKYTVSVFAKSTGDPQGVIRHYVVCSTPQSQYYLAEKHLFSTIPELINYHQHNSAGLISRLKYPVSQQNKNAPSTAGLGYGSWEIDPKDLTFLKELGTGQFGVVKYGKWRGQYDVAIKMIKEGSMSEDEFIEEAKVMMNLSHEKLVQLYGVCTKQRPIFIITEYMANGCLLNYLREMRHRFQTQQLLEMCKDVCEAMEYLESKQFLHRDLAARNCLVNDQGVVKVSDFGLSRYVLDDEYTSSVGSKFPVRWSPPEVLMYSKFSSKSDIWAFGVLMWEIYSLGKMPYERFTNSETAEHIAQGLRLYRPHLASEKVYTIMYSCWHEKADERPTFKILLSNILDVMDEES
# Test Name: Determination of phosphorylated BTK in Ramos cells (BTK phospho-Y223 HTRF)
# Run Conditions: anti-human IgM + hydrogen peroxide stimulation
Measured Parameter: IC50 (nM)

INSERT INTO assay_data (molecule, unit_text, endpoint_value) VALUES
  ('CN1CCn2nc(Nc3cc(-c4ccnc(-n5ccn6c7c(cc6c5=O)CC(C)(C)C7)c4CO)cn(C)c3=O)cc2C1=O [Compound 15]', 'nM', 12);

I: Cn1cc(-c2ccnc(-n3ncn4c5c(cc4c3=O)CC(C)(C)C5)c2CO)cc(Nc2cc3n(n2)CCN(C2CCC2)C3)c1=O [Compound 170]
II: C[C@H]1CN(C2COC2)CCN1c1ccc(Nc2cc(-c3ccnc(-n4ccn5c(cc6cc(F)ccc65)c4=O)c3CO)cn(C)c2=O)nc1 [Compound 75]
Prompt: # compare IC50 for I vs II ; return the one with the smaller value # reply format: chosen label
Response: II

====

# Subject Of Test: BTK recombinant protein (Homo sapiens (Human), UniProt Q06187)
# Sequence (Q06187 whole entry): as above
# Test Name: Determination of biochemical BTK (Z'-LYTE kinase assay)
Measured Parameter: IC50 (nM)

Take a look at these entries with their results.
INSERT INTO assay_data (compound, subject_of_test, unit_text, endpoint_value) VALUES
  ('C[C@@H]1[C@H](C)N(c2ccc(Nc3cc(-c4ccnc(-n5ccn6c7c(cc6c5=O)CC(C)(C)C7)c4CO)cn(C)c3=O)nc2)CCN1C1COC1 [Compound 234]', 'BTK recombinant protein (Homo sapiens (Human), UniProt Q06187)', 'nM', 32),
  ('C[C@H]1CN(C2COC2)CCN1c1ccc(Nc2cc(-c3ccnc(-n4ccn5c6c(cc5c4=O)COCC6)c3CO)cn(C)c2=O)nc1 [Compound 93]', 'BTK recombinant protein (Homo sapiens (Human), UniProt Q06187)', 'nM', 49);

P: C[C@H]1CN(C2COC2)CCN1c1ccc(Nc2cc(-c3ccnc(-n4ncn5c(c(F)c6ccccc65)c4=O)c3CO)cn(C)c2=O)nc1 [Compound 149]
Q: C[C@@H]1CN(c2ccc(Nc3cc(-c4ccnc(-n5ccn6c7c(cc6c5=O)CC(C)(C)C7)c4CO)cn(C)c3=O)nc2)[C@@H](C)CN1C1COC1 [Compound 27]
R: Cn1cc(-c2ccnc(-n3ccn4c5c(cc4c3=O)CC(C)(C)C5)c2CO)cc(NC(=O)C2CCC2)c1=O [Compound 130]
Prompt: // sort entries: IC50, high to low Put the labels in the requested order and list them out.
Response: R, P, Q
(R: 316 nM, P: 19 nM, Q: 7 nM)

====

# Subject Of Test: phosphorylated BTK in Ramos cells (Homo sapiens (Human), UniProt Q06187)
# Test Name: Determination of phosphorylated BTK in Ramos cells (BTK phospho-Y223 HTRF)
# Run Conditions: anti-human IgM + hydrogen peroxide stimulation
Measured Parameter: IC50 (nM)

INSERT INTO assay_data (entry_smiles, subject_of_test, measured_parameter, unit_text, endpoint_value) VALUES
  ('Cn1nc(-c2ccnc(-n3ccn4c5c(cc4c3=O)CC(C)(C)C5)c2CO)cc(Nc2cn(CCF)nn2)c1=O', 'phosphorylated BTK in Ramos cells (Homo sapiens (Human), UniProt Q06187)', 'IC50', 'nM', 30);

I: C[C@H]1CN(C2COC2)CCN1c1ccc(Nc2cc(-c3ccnc(-n4ncn5c(cc6ccccc65)c4=O)c3CO)cn(C)c2=O)nc1
II: C[C@@H]1CN(c2ccc(Nc3cc(-c4ccnc(-n5ccn6c7c(c(F)c6c5=O)CCCC7)c4CO)cn(C)c3=O)nc2)[C@@H](C)CN1C1COC1
Prompt: # compare IC50 for I vs II ; return the one with the smaller value # reply format: chosen label
Response: II
(II: 12 nM, I: 28 nM)

====

# Subject Of Test: BTK recombinant protein (Homo sapiens (Human))
# Test Name: Determination of biochemical BTK (Z'-LYTE kinase assay)
Measured Parameter: IC50 (nM)

Take a look at these entries with their results.
INSERT INTO assay_data (molecule, measured_parameter, unit_text, endpoint_value) VALUES
  ('Cn1cc(-c2ccnc(-n3ccn4c5c(cc4c3=O)CC(C)(C)C5)c2CO)cc(Nc2ccncn2)c1=O', 'IC50', 'nM', 13),
  ('Cn1cc(-c2ccnc(-n3ccn4c5c(cc4c3=O)CC(C)(C)C5)c2CO)cc(Nc2ccc(N3CCC4(CCOC4)CC3)cn2)c1=O', 'IC50', 'nM', 40),
  ('COCCN(c1ccc(Nc2cc(-c3ccnc(-n4ccn5c6c(cc5c4=O)CC(C)(C)C6)c3CO)cn(C)c2=O)nc1)C(C)C', 'IC50', 'nM', 10),
  ('C[C@H]1CN(C2COC2)CCN1c1ccc(Nc2cc(-c3ccnc(-n4ccn5c6c(c(Br)c5c4=O)CC(C)(C)C6)c3CO)cn(C)c2=O)nc1', 'IC50', 'nM', 21),
  ('COCCN1CCn2nc(Nc3cc(-c4ccnc(-n5ccn6c(c(F)c7ccccc76)c5=O)c4CO)cn(C)c3=O)cc2C1', 'IC50', 'nM', 6),
  ('C[C@@H](CNC1COC1)Nc1ccc(Nc2cc(-c3ccnc(-n4ccn5c6c(cc5c4=O)CC(C)(C)C6)c3CO)cn(C)c2=O)nc1', 'IC50', 'nM', 10),
  ('Cn1cc(-c2ccnc(-n3ccn4c5c(cc4c3=O)CC(C)(C)C5)c2CO)cc(Nc2cc3n(n2)CCOC3)c1=O', 'IC50', 'nM', 1),
  ('Cn1cc(-c2ccnc(-n3ccn4c5c(cc4c3=O)CC(C)(C)C5)c2CO)cc(Nc2ccc(N3C[C@@H]4C[C@H]3CN4C3COC3)cn2)c1=O', 'IC50', 'nM', 29),
  ('[2H]C([2H])([2H])n1cc(-c2ccnc(-n3ccn4c5c(cc4c3=O)CC(C)(C)C5)c2CO)cc(Nc2ccc(N3CCN(C4COC4)C[C@@H]3C)cn2)c1=O [Compound 97]', 'IC50', 'nM', 9);

I: C[C@H]1CN(C#N)CCN1c1ccc(Nc2cc(-c3ccnc(-n4ccn5c6c(cc5c4=O)CC(C)(C)C6)c3CO)cn(C)c2=O)nc1
II: CCCn1cc(Nc2cc(-c3ccnc(-n4ccn5c6c(cc5c4=O)CC(C)(C)C6)c3CO)cn(C)c2=O)cn1
Prompt: Of I and II , whose reported IC50 is the larger number? # reply format: chosen label
Response: I
(I: 7 nM, II: 2 nM)

====

# Subject Of Test: BTK recombinant protein (Homo sapiens (Human))
# Test Name: Determination of biochemical BTK (Z'-LYTE kinase assay)
pIC50: −log10 of the molar value.
Measured Parameter: pIC50

Take a look at these entries with their results.
INSERT INTO assay_data (compound, subject_of_test, endpoint_value) VALUES
  ('C[C@H]1CN(C2COC2)CCN1c1cnc(Nc2cc(-c3ccnc(-n4ccn5c6c(cc5c4=O)CC(C)(C)C6)c3CO)cn(C)c2=O)cn1 [Compound 43]', 'BTK recombinant protein (Homo sapiens (Human))', 8.05),
  ('C[C@H]1CN(C2COC2)CCN1c1ccc(Nc2cc(-c3ccnc(-n4ccn5c6c(cc5c4=O)CC(C)(C)C6)c3CO)cn3ncnc23)nc1 [Compound 21]', 'BTK recombinant protein (Homo sapiens (Human))', 8.10),
  ('CC[C@H]1CN(C2COC2)CCN1c1ccc(Nc2cc(-c3ccnc(-n4ccn5c6c(c(F)c5c4=O)CCCC6)c3CO)cn(C)c2=O)nc1 [Compound 227]', 'BTK recombinant protein (Homo sapiens (Human))', 8.10);

I: Cn1cc(-c2ccnc(-n3ccn4c(c(F)c5ccccc54)c3=O)c2CO)cc(Nc2cc3n(n2)CCN(C2COC2)C3)c1=O [Compound 178]
II: COCCN1CCN(c2ccc(Nc3cc(-c4ccnc(-n5ccn6c7c(cc6c5=O)CC(C)(C)C7)c4CO)cn(C)c3=O)nc2)[C@@H](C)C1 [Compound 8]
Prompt: Of I and II , whose reported pIC50 is the larger number? # reply format: chosen label
Response: I
(I: 8.22, II: 7.92)

====

# Subject Of Test: phosphorylated BTK in Ramos cells (Homo sapiens (Human), UniProt Q06187)
# Test Name: Determination of phosphorylated BTK in Ramos cells (BTK phospho-Y223 HTRF)
# Run Conditions: anti-human IgM + hydrogen peroxide stimulation
pIC50: −log10 of the molar value.
Measured Parameter: pIC50

Take a look at these entries with their results.
INSERT INTO results (molecule, endpoint_value) VALUES
  ('CC(C)n1cc(Nc2cc(-c3ccnc(-n4ccn5c6c(cc5c4=O)CC(C)(C)C6)c3CO)nn(C)c2=O)nn1 [Compound 7]', 8.52),
  ('C[C@H]1CN(C2COC2)CCN1c1ccc(Nc2cc(-c3ccnc(-n4ccn5c(cc6cccc(F)c65)c4=O)c3CO)cn(C)c2=O)nc1 [Compound 52]', 7.74),
  ('C[C@@H]1CN(C2COC2)CCN1c1ccc(Nc2cc(-c3ccnc(-n4ccn5c6c(cc5c4=O)CC(C)(C)C6)c3CO)cn(C)c2=O)nc1 [Compound 80]', 8.70),
  ('C[C@H]1CN(C2COC2)CCN1c1ccc(Nc2cc(-c3ccnc(-n4ccn5c6c(cc5c4=O)CC(C)(C)C6)c3CO)nn(C)c2=O)nc1 [Compound 22]', 7.74),
  ('C[C@H]1CN(C2COC2)CCN1c1ccc(Nc2cc(-c3ccnc(-n4ccn5c6c(cc5c4=O)CC(C)(C)C6)c3CF)cn(C)c2=O)nc1 [Compound 105]', 7.96);

1: Cn1cc(-c2ccnc(-n3ccn4c5c(cc4c3=O)CC(C)(C)C5)c2CO)cc(Nc2ccc(F)cn2)c1=O [Compound 90]
2: Cc1cc(Nc2cc(-c3ccnc(-n4ncn5c6c(cc5c4=O)CC(C)(C)C6)c3CO)cn(C)c2=O)no1 [Compound 192]
3: C[C@H]1CN(C2COC2)CCN1c1ccc(Nc2cc(-c3ccnc(-n4ccn5c6c(cc5c4=O)CC(C)(C)C6)c3C=O)cn(C)c2=O)nc1 [Compound 72]
Prompt: // sort entries: pIC50, high to low Put the labels in the requested order and list them out.
Response: 1, 2, 3
(1: 8.15, 2: 7.80, 3: 7.01)
